Assay: Selectivity index, ratio of IC50 for BALB/c macrophages to IC50 for Leishmania amazonensis (MHOM/BR/76/LTB-012)
Quantity: Ratio IC50

Consider the compound shown here: `C=CCOc1cc(OC)c(C(=O)/C=C/c2ccc(F)cc2)c(OCC=C)c1` What is its recorded Ratio IC50?
1.5

Consider the compound shown here: `COc1cc(O)cc(O)c1C(=O)/C=C/c1ccc(C(F)(F)F)cc1` What is its recorded Ratio IC50?
2

Consider the compound shown here: `COc1cc(O)cc(O)c1C(=O)/C=C/c1ccccc1F` What is its recorded Ratio IC50?
1.4

Consider the compound shown here: `C=CCOc1cc(/C=C/C(=O)c2c(O)cc(O)cc2OC)cc(OCC=C)c1Br` What is its recorded Ratio IC50?
10.5

Consider the compound shown here: `COc1cc(O)cc(O)c1C(=O)/C=C/c1ccc(C)cc1` What is its recorded Ratio IC50?
2.2

Consider the compound shown here: `COc1cccc(/C=C/C(=O)c2c(O)cc(O)cc2OC)c1` What is its recorded Ratio IC50?
1.5

Consider the compound shown here: `C[C@@H]1[C@H](O)[C@@H](C)/C=C/C=C/C=C/C=C/C=C/C=C/C=C/[C@H](O[C@@H]2O[C@H](C)[C@@H](O)[C@H](N)[C@@H]2O)C[C@@H]2O[C@](O)(C[C@@H](O)C[C@@H](O)[C@H](O)CC[C@@H](O)C[C@@H](O)CC(=O)O[C@H]1C)C[C@H](O)[C@H]2C(=O)O` What is its recorded Ratio IC50?
76

Consider the compound shown here: `COc1cc(O)cc(O)c1C(=O)/C=C/c1ccccc1Br` What is its recorded Ratio IC50?
1.4

Consider the compound shown here: `C=CCOc1cc(OC)c(C(=O)/C=C/c2cc(OC)c(OC)c(OC)c2)c(OCC=C)c1` What is its recorded Ratio IC50?
1.5

Consider the compound shown here: `C=CCOc1cc(OC)c(C(=O)/C=C/c2ccc([N+](=O)[O-])cc2)c(OCC=C)c1` What is its recorded Ratio IC50?
1.6

Consider the compound shown here: `COc1cc(O)cc(O)c1C(=O)/C=C/c1ccc2c(c1)OCO2` What is its recorded Ratio IC50?
38.3

Consider the compound shown here: `COc1cc(O)cc(O)c1C(=O)/C=C/c1ccco1` What is its recorded Ratio IC50?
83.5

Consider the compound shown here: `C=CCOc1cc(OC)c(C(=O)/C=C/c2cccc(OC)c2)c(OCC=C)c1` What is its recorded Ratio IC50?
1.5

Consider the compound shown here: `C=CCOc1cc(OC)c(C(=O)/C=C/c2ccccc2F)c(OCC=C)c1` What is its recorded Ratio IC50?
1.4

Consider the compound shown here: `C=CCOc1cc(OC)c(C(=O)/C=C/c2ccccc2Br)c(OCC=C)c1` What is its recorded Ratio IC50?
0.7

Consider the compound shown here: `C=CCOc1cc(OC)c(C(=O)/C=C/c2ccc(Cl)cc2)c(OCC=C)c1` What is its recorded Ratio IC50?
1.4

Consider the compound shown here: `C=CCOc1cc(OC)c(C(=O)/C=C/c2ccc(OC)cc2)c(OCC=C)c1` What is its recorded Ratio IC50?
3.4

Consider the compound shown here: `COc1ccc(/C=C/C(=O)c2c(O)cc(O)cc2OC)cc1` What is its recorded Ratio IC50?
16.6

Consider the compound shown here: `COc1ccc(/C=C/C(=O)c2c(O)cc(O)cc2OC)c(OC)c1` What is its recorded Ratio IC50?
>50

Consider the compound shown here: `COc1cc(O)cc(O)c1C(=O)/C=C/c1ccc(O)cc1` What is its recorded Ratio IC50?
1.4

Consider the compound shown here: `COc1cc(O)cc(O)c1C(=O)/C=C/c1ccc(F)cc1` What is its recorded Ratio IC50?
2.4

Consider the compound shown here: `COc1cc(O)cc(O)c1C(=O)/C=C/c1ccc(Cl)cc1` What is its recorded Ratio IC50?
1.7

Consider the compound shown here: `C=CCOc1cc(OC)c(C(=O)/C=C/c2ccccn2)c(OCC=C)c1` What is its recorded Ratio IC50?
11.4
